Taken from ChEMBL document CHEMBL1154904.

- ASSAY NAME: Plasma concentration in Sprague-Dawley rat deep vein thrombosis model at 50 mg/kg, po measured after 70 mins post
- Type: ADME, organism-based
- Parameters: dose 50 mg/kg, route oral
OBSERVABLE: concentration at 70 min (nM)

> print(dat)
                        structure.as.smiles   u  reported.result
1  Cc1cnc(NCC(F)(F)c2ccccc2)c(=O)n1CC(=O)NCCONC(=N)N  nM              730

----------
- ASSAY NAME: in vitro
- RUN CONDITIONS: human, Caco-2
// assign t if Papp A→B falls strictly below 0.5 ×10⁻⁶ cm/s, else f (ties count as f)

> print(dat)
                        structure.as.smiles  assigned.category
1  Cc1ccc(CCNc2ncc(C)n(CC(=O)N(C)CCON=C(N)N)c2=O)cc1                  t
2  Cc1cnc(NCCc2cccc3ccccc23)c(=O)n1CC(=O)NCCON=C(N)N                  t
3  Cc1cnc(NCCc2ccc3c(c2)CCC3)c(=O)n1CC(=O)NCCONC(=N)N                  f
4  Cc1cnc(NCC(c2ccccc2)c2ccccc2)c(=O)n1CC(=O)NCCONC(=N)N                  t
